Examples of compounds with documented Foam height at time t = 2 follow.
Test: Foam height test, Standard Test Method for Foaming Properties of Surface-Active Agents (ASTM 1173-07)
Type: physicochemical
Conditions: 10 g/L (1.0 weight %), t = 2 min, 49° C.
Recorded metric: Foam height at time t = 2

CCCCCCCCCCCCOC(=O)CCC[N+](C)(C)CC(O)CS(=O)(=O)[O-] (stereo not drawn); 167 mm
CCCCCCCCCCCCNC(=O)CCC[N+](C)(C)CCCS(=O)(=O)[O-]; 137 mm
CCCCCCCCCCCCOC(=O)CCC[N+](C)(C)CCCS(=O)(=O)[O-]; 161 mm
CCCCCCCCCCCCOC(=O)CCCC[N+](C)(C)CC(O)CS(=O)(=O)[O-] (stereo not drawn); 180 mm
CCCCCCCCCCCCNC(=O)CCC[N+](C)(C)CC(O)CS(=O)(=O)[O-] (stereo not drawn); 178 mm
CCCCCCCCCCCCNC(=O)CCCC[N+](C)(C)CC(O)CS(=O)(=O)[O-] (stereo not drawn); 170 mm
